test system: NCI-H522 lung; test: NCI tumour cell line growth inhibition, 48 h
experimental endpoint: TGI

Below are worked cases with known answers.
Q. Consider the compound "O=c1c2cccnc2ncn1CCCN1CCCC1" and give its recorded TGI.
A. > 100 µM

Q. Answer with reported TGI of "CCOC(=O)c1nc2cc(C(F)(F)F)ccc2nc1Oc1ccc(F)cc1"
A. > 100 µM

Q. Return value of TGI for input CC1(C)OC2OC(COC(=O)c3ccc(C#N)cc3)C3OC(C)(C)OC3C2O1 (stereo unspecified) , no commentary.
A. > 75 µM

Q. In one line, give reported TGI of the entry CCOC1CCN(C(=O)c2ccccc2)O1 (stereo unspecified) .
A. > 10 µM

Q. Please supply the value of reported TGI for the item "O=c1[nH]c(=O)n([C@@H]2O[C@H](CO)[C@@H](O)[C@@H]2F)cc1I"
A. > 100 µM

Q. Recall and state the measured TGI for "Nc1c2cc3ccc2nc2ccc(cc12)OCCOCCOCCOCCOCCOCCO3" .
A. > 10 µM

Q. Give the reported value of TGI for this record: "CN1CCCN2CCN(C)CCCN(CC1)CC2"
A. > 100 µM

Q. Tell me TGI reported for "CC(=O)n1nc(-c2ccc3ccccc3c2)nc1C"
A. > 100 µM

Q. Tell us which TGI value is on record for "Cc1cccc(Nc2cc(Cl)nc(SCC(=O)O)n2)c1C"
A. > 100 µM

Q. Return reported TGI. Input compound: "COc1cc(OC)c(C2(c3c(OC(C)C)c(=O)c3=O)SCCCS2)cc1OC"
A. > 100 µM

With those in mind, consider the next compound.
Q. Supply reported TGI belonging to this compound: OC12CCC3(O)c4ccccc4C3C1c1ccccc12 (stereo unspecified)
A. > 100 µM

* * *

system: SK-MEL-5 melanoma; test: NCI tumour cell line growth inhibition, 48 h; in the data active means GI50 below about 0.43 µM; inactive means the rest
API: response.call in true (active), false (inactive)

// below: answered compounds
Q. What did the test return for "COc1ccc2[nH]c(C(=O)OCc3ccc4cccc(O)c4n3)cc2c1" ?
A. false

Q. // param item: "CCOc1ccc(C(C)=O)cc1NC(=O)c1cccc(-c2nnn(CC)n2)c1" ; yields the recorded call
A. false

***
Q. Outcome logged for "CCc1nn2ncccc2c1-c1ccnc(NC2CC2)n1" in this assay:
A. false

Q. Could you please tell me the result logged for "COc1ccc2nc3cccc([N+](=O)[O-])c3c(NCCNCCN(C)C)c2c1" in this assay?
A. true

Q. Could you kindly confirm the outcome this assay logged for COc1ccccc1C1C(C#N)=C(N)Oc2cc(O)ccc21 (stereo unspecified) ?
A. false

Q. State the result this test recorded for "Cn1cncc1-c1c(F)cncc1NC(=O)c1c(N)nn2cc(F)cnc12" .
A. false

* * *

tested on: NCI-H522 lung; experiment: NCI tumour cell line growth inhibition, 48 h
experimental endpoint: GI50

Below are worked cases with known answers.
Q. Assign GI50 to the following record: "Cc1ccc(O)c(NC2=C(Cl)C(=O)N(Cc3ccccc3)C2=O)c1"
A. 13.1 µM

Q. For "O=C(Nc1ccc2c(c1)OCCO2)C(=O)c1c[nH]c2ccccc12" , write its GI50.
A. 0.536 µM

Others:
Q. Output GI50 of "CCc1nn2ncccc2c1-c1ccnc(NC2CC2)n1"
A. > 25 µM

* * *

The entries below are paired with their reported TGI.
tested on: SK-OV-3 ovarian; experiment: NCI tumour cell line growth inhibition, 48 h
Express the result in µM but write the number alone.

The cases that follow already have their TGI on record.
Q. Quickly give me recorded TGI for "COc1ccc2[nH]c(C(=O)OCc3ccc4cccc(O)c4n3)cc2c1"
A. 23.2

Q. Given the compound "CC[n+]1c(/C=C/c2ccc(N(CCCl)CCCl)cc2)ccc2cc(I)ccc21" , write its reported TGI.
A. 6.42

Now consider the entry below.
Q. Assign TGI to the following record: COc1ccc2oc(C(=O)N3CC(CCl)c4ccc(N)cc43)cc2c1 (stereo not drawn)
A. 8.78
